system: PDGF; experiment: SRE-luciferase antagonist assay, induction by PDGF; assay type: cell-based; conditions: Swiss-3T3, SWISS3T3 cells, 5 hours, approximate
Endpoint: IC50
For clarity, give the value followed by its unit.

The value of IC50 measured for the compound `O=C(NN1CCCCC1)NS(=O)(=O)c1ccc(CCNC(=O)c2[nH]c3ccccc3c2OCc2ccccc2)cc1` turned out to be 13 µM
